Reported EC50 is given for each of the following binders.
biological target: T1, human CD47 on Jurkat cells (human, UniProt Q08722 19-323); test: MSD on Jurkat cells; blocks SIRP alpha-Fc binding
T1 construct: Endogenous CD47 of the cell lines; also called CD47-expressing Jurkat cells; CD47 on HL60 cells
Provide the reading as a plain figure in µg/mL.

# Binder, Units text, EC50
data = [
    ("C47B147 (antibody, V domains shown, HFA variant of C47B116; human IgG2sigma/kappa) VH: EVQLVQSGAEVKKPGESLKISCKGSGYTFTDYNMHWVRQMPGKGLEWMGDIYPYNGGTGYNQKFKGQVTISADKSISTAYLQWSSLKASDTAMYYCARGGWHAMDSWGQGTLVTVSS VL: DIVMTQSPDSLAVSLGERATINCRSRQSIVHTNRYTYLAWYQQKPGQPPKLLIYKVSNRFSGVPDRFSGSGSGTDFTLTISSLQAEDVAVYYCFQGSHVPYTFGGGTKLEIK", "µg/mL", 0.24),
]

Below: the item to evaluate.
Prompt: Let me know recorded EC50 for C47B161 (human IgG2sigma) (antibody, V domains shown, HFA variant of C47B116; human IgG2sigma/kappa; also called IgG2 Fc-silent C47B161) VH: QVQLVQSGAEVKKPGASVKVSCKASGYTFTDYNMHWVRQAPGQRLEWMGDIYPYNGGTGYNQKFKGRVTITRDTSASTAYMELSSLRSEDTAVYYCARGGWHAMDSWGQGTLVTVSS VL: DIVMTQSPLSLPVTPGEPASISCRSRQSIVHTNRYTYLAWYLQKPGQSPQLLIYKVSNRFSGVPDRFSGSGSGTDFTLKISRVEAEDVGVYYCFQGSHVPYTFGGGTKLEIK , thanks.
Completion: 0.06
